Cited source for all entries: patent US10065990B2

Record form. Attribute: GI50. Fill in for each entry.
Tested on: MDA-MB-231 (breast cancer cells)
PROCEDURE_SUMMARY: MTT cancer cell growth inhibition
Assay type: cell-based
CONDITION_SET: Homo sapiens, MDA-MB-231, 72 h, read-out: GI50 MDA-MB-231, MTT, 72 hours incubation, MDA-MB-231 cells
Express it in nM; write the number only.

I have this compound here, "C=C1NC(=O)c2ccc(F)c(n2)CNC(=O)C[C@@H](/C=C/CCS)OC(=O)[C@H](C(C)C)NC1=O" , and I need its recorded GI50.
63

Continue with "CC(=O)SCC/C=C/[C@@H]1CC(=O)NCc2ccc(F)c(n2)C(=O)NC(=C(C)C)C(=O)N[C@@H](C(C)C)C(=O)O1"
19

Continue with "C/C=C1\NC(=O)c2cc(F)cc(n2)CNC(=O)C[C@@H](/C=C/CCSC(=O)CCCCCCC)OC(=O)[C@H](Cc2ccccc2)NC1=O"
36

Continue with "C/C=C1\NC(=O)c2cc(F)cc(n2)CNC(=O)C[C@@H](/C=C/CCS)OC(=O)[C@H](C)NC1=O"
31

Continue with "C/C=C1\NC(=O)c2ccc(F)c(n2)CNC(=O)C[C@@H](/C=C/CCSC(=O)CCCCCCC)OC(=O)[C@H](C(C)C)NC1=O"
38

Continue with "C/C=C1\NC(=O)c2cc(SC)cc(n2)CNC(=O)C[C@@H](/C=C/CCSC(C)=O)OC(=O)[C@H](CCCCN)NC1=O"
43
